Values compiled from patent EP0335545B2.

assay: Maximum concentrations of selected CDS in varying concentrations of selected cyclodextrins; type: physicochemical; conditions: 40% hpcd
measured_endpoint: solubility (mg/mL)
API: value field is a number in mg/mL; no unit string.

Query CN1C=CCC(C(=O)O[C@H]2CC[C@H]3[C@@H]4CCc5cc(O)ccc5[C@H]4CC[C@]23C)=C1 [Example E2-CDS] yields solubility of 11.9

----------
experiment: physchem; conditions: aqueous 7% hpcd
measured_endpoint: solubility at 3 h (µg/mL)
State just the number; it will be interpreted in µg/mL.

Consider O=C(O)CCCc1ccc(N(CCCl)CCCl)cc1 . Its measured solubility at 3 h is 2710
